System: Calf thymus DNA
ASSAY_OVERVIEW: Binding affinity to calf thymus DNA assessed as hypochromic effect by UV-vis spectrophotometric method
Type: nucleic-acid assay
SETTINGS: Bos taurus
MEASURED_ATTRIBUTE: Activity (%)

SMILES_DATA	TARGET_OR_SYSTEM	Activity (%)
Cl.Cl.Cl.N=C(NC1CCCC1)c1ccc2nc(-c3ccc(OCCNc4ccnc5cc(Cl)ccc45)cc3)[nH]c2c1	Calf thymus DNA	24.4
Cl.Cl.Clc1ccc2c(Oc3ccc(-c4nc5ccc(C6=NCCCN6)cc5[nH]4)cc3)ccnc2c1	Calf thymus DNA	25.5
Cl.Cl.Cl.Clc1ccc2c(NCCOc3ccc(-c4nc5ccc(C6=NCCCN6)cc5[nH]4)cc3)ccnc2c1	Calf thymus DNA	31

a. N#Cc1ccc(OCCNc2ccnc3cc(Cl)ccc23)cc1
b. Cl.Cl.Clc1ccc2c(Oc3ccc(-c4nc5ccc(C6=NCCN6)cc5[nH]4)cc3)ccnc2c1
c. Cl.Cl.Cl.N=C(N)c1ccc2nc(-c3ccc(OCCNc4ccnc5cc(Cl)ccc45)cc3)[nH]c2c1
Q: Please rank these compounds by Activity in descending order. State the ranking by listing the labels in the requested order.
Ans: b, a, c

I. Cl.Cl.N=C(NC1CCCC1)c1ccc2nc(-c3ccc(Oc4ccnc5cc(Cl)ccc45)cc3)[nH]c2c1
II. CC(C)NC(=N)c1ccc2nc(-c3ccc(Oc4ccnc5cc(Cl)ccc45)cc3)[nH]c2c1.Cl.Cl.Cl
III. CC(C)NC(=N)c1ccc2nc(-c3ccc(OCCNc4ccnc5cc(Cl)ccc45)cc3)[nH]c2c1.Cl.Cl.Cl
Q: Rank items: key Activity, increasing. State the ranking by listing the labels in the requested order.
Ans: III, I, II
(III: 23.7%, I: 36.7%, II: 60%)

A. CC(C)CNC(=N)c1ccc2nc(-c3ccc(OCCNc4ccnc5cc(Cl)ccc45)cc3)[nH]c2c1.Cl.Cl.Cl
B. CC(C)CNC(=N)c1ccc2nc(-c3ccc(Oc4ccnc5cc(Cl)ccc45)cc3)[nH]c2c1.Cl.Cl.Cl
Q: Looking only at measured Activity, which entry is lower, A or B ? Refer to your chosen entry by its label in the reply.
Ans: A
